Values were extracted from PubChem BioAssay.

Below, each of the compounds is paired with its reported composite z-score value.
test system: Lefty1; assay: Lefty1 binders on small-molecule microarrays, primary screen, biochemical, small-molecule microarray, 635/667 nm fluorescence (AID 1139); settings: small-molecule microarray binding, fluorescence 635/667; higher = more signal
Give the figure by itself; no unit, no explanation.

Worked cases, answers included:
- smiles_entry: "COCCOC(=O)N1C(=O)[C@@]2(c3cc(C#CC4(O)CCCCCC4)ccc31)[C@H](c1ccc(OCCO)cc1)N1[C@H](c3ccccc3)[C@H](c3ccccc3)OC(=O)[C@H]1[C@@H]2C(N)=O"
  composite z-score: 1.38
- smiles_entry: "COCCOC(=O)N1C(=O)[C@@]2(c3cc(C#CCCO)ccc31)[C@H](c1ccccc1OCCO)N1[C@H](c3ccccc3)[C@H](c3ccccc3)OC(=O)[C@H]1[C@@H]2C(=O)N1CCc2cc(OC)c(OC)cc2C1"
  composite z-score: 0.786
- smiles_entry: "C#CCN(C/C=C/c1ccccc1)[C@H](CO[Si](C)(C)C(C)(C)C)c1ccccc1"
  composite z-score: 0.178

Now for a further compound.
What value of composite z-score has been reported for the following compound? C=CC[C@@]1(C(=O)O)N=C(c2ccc(OCCCO)cc2)O[C@@H]1c1ccccc1CN=[N+]=[N-]
0.588
